This collection of values is drawn from paper PMC7023391.

Listed next: entries and their corresponding Papp at 60 min, 10 µM.
Test: in vitro
Conditions: human, Caco-2, pH 7.4
Report only the number, with the unit ×10⁻⁶ cm/s understood.

Some molecules with recorded Papp at 60 min, 10 µM:
{"columns": ["Molecule", "Measured Metric", "Units Symbol", "Assay Value"],
 "data": [
  ["CN(Cc1cnc2nc(N)nc(N)c2n1)c1ccc(C(=O)N[C@@H](CCC(=O)O)C(=O)O)cc1 [Methotrexate, methotrexate]", "Papp at 60 min, 10 µM", "×10⁻⁶ cm/s", 0.29],
  ["Nc1nc2c(ncn2COCCO)c(=O)[nH]1", "Papp at 60 min, 10 µM", "×10⁻⁶ cm/s", 1.29]
]}

Next, consider the following molecule.
Data request: Dear colleague, please send me the reported Papp at 60 min, 10 µM for OC[C@@H](O)[C@@H](O)[C@H](O)[C@H](O)CO when you can.
Data returned: 0.92
